molecular target: CPAF (Chlamydia trachomatis serovar D, UniProt O84866); assay: FRET-based CPAF inhibition assay with model substrate SEQ ID NO:10; assay type: biochemical, C. trachomatis; set-up: 6xHis; made in house; host or cells: E. coli BL21 (DE3), plasmid pET30b-CPAF
Sequence (O84866 276-601): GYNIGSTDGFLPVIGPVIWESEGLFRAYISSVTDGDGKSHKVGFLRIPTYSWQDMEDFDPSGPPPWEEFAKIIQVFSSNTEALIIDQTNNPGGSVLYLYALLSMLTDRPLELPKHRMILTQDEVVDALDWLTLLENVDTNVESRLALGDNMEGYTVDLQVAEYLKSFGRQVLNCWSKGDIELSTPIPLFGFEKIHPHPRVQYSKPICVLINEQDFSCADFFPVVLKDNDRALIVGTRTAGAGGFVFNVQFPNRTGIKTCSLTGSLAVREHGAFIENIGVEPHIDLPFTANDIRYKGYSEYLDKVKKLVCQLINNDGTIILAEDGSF
Sequence (O84866 1-234, added parts left off): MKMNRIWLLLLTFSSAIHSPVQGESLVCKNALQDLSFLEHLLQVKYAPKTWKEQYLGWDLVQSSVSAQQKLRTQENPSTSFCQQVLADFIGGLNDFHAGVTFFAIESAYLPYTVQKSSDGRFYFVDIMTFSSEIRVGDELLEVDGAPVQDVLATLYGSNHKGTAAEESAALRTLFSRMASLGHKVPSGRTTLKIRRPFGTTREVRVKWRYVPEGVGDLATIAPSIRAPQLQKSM
Where no end group is shown, it is not given here.
Property Label: IC50 (nM)
Give the number; nM is assumed, so skip it.

Ask: # return recorded IC50 for input SLFYSPMVPHFWAELRNHYATSGLKRRRRRRRRR-NH2 [SEQ ID NO:7]
Reply: 30

---

target: UniProt:O84866; assay: HPLC-based CPAF inhibition assay with Abz-tagged model substrate (SEQ ID NO:9); type: biochemical, C. trachomatis; parameters: 6xHis; made in house; host or cells: E. coli BL21 (DE3), plasmid pET30b-CPAF; conditions: CPAF 62.5 nM, substrate SEQ ID NO:9 0.5 mM, inhibitor 0-240 μM
Property Label: pIC50
Note on units: pIC50 is unitless, being -log10 of a concentration expressed in mol/L.

Ask: Give UniProt:O84866 pIC50 for the following compound: `CC(=O)N[C@@H](CSC(=O)[C@]1([C@@H](O)C(C)C)NC(=O)[C@H](C)[C@@H]1O)C(=O)O`
Reply: 4.99

---

molecular target: CPAF (Chlamydia trachomatis serovar D, UniProt O84866); assay: HPLC-based CPAF inhibition assay with Abz-tagged model substrate (SEQ ID NO:9); assay type: biochemical, C. trachomatis; parameters: 6xHis; made in house; host or cells: E. coli BL21 (DE3), plasmid pET30b-CPAF; settings: CPAF 62.5 nM, substrate SEQ ID NO:9 0.5 mM, inhibitor 0-240 μM
Where no end group is shown, it is not given here.
Property Label: pIC50
Note on units: pIC50 is unitless, being -log10 of a concentration expressed in mol/L.

Ask: # return recorded pIC50 for input SLFYSPMVPHFWAELRNHYATSGLKRRRRRRRRR-NH2 [SEQ ID NO:7]
Reply: 7.30
